Recorded normalized growth values for a group of molecules are listed next.
Test: chemical genetic growth profiling, strain panel (AID 1159580);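 also: tested at 20 µM; growth read once vehicle control cultures reached saturation at 30 °C; 1 = growth at the plate median or of vehicle wells; lower values mean less growth of the strain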
Conditions: S. cerevisiae deletion strains, growth OD, locus YPL078C, strain atp4, stronger effect = lower value
In all, about 5,500 compounds went through this assay and about 2,000 (36%) were called active. About 18% were inconclusive and are not listed. The list shows a part of the results.
Quantity: normalized growth

>>> df
                                smiles_data  reading
0  CC(=O)Oc1cc(-c2coc3cc(OC(C)=O)c(OC(C)=O)c(OC(C)=O)c3c2=O)cc(OC(C)=O)c1OC(C)=O    0.772
1  COc1ccc(-c2cc(=O)c3c(OC(C)=O)cc(OC(C)=O)cc3o2)cc1    0.967
2               CNCCC=C1c2ccccc2CCc2ccccc21    0.959
3          CN(C)CC/C=C1/c2ccccc2COc2ccccc21     1.02
4  O=C(O)c1cn(-c2ccc(F)cc2)c2cc(N3CCNCC3)c(F)cc2c1=O    0.972
5            CN(C)CCC=C1c2ccccc2CCc2ccccc21    0.994

====

Experiment: chemical genetic growth profiling, strain panel (AID 1159580);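 also: tested at 20 µM; growth read once vehicle control cultures reached saturation at 30 °C; 1 = growth at the plate median or of vehicle wells; lower values mean less growth of the strain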
Details: S. cerevisiae deletion strains, growth OD, locus YLR262C, strain YPT6
The campaign covered roughly 5,500 compounds. About 2,000 (36%) were called active. Not shown: some 18% with an inconclusive outcome. Rule as the data show it: active = normalized growth mostly below about 0.91 (no sharp cut-off); inconclusive = no clear call, values can overlap the other calls; inactive = mostly above about 0.92. The list shows a part of the results.
Possible outcomes: active, inactive

Compound	Label Class
CC1=CCc2c(cc3oc(C)cc(=O)c3c2O)OC1	inactive
C#CCOS(=O)OC1CCCCC1Oc1ccc(C(C)(C)C)cc1 (configuration not stated)	inactive
CC(=O)C1COc2ccc(C)cc2C1=O (configuration not stated)	active
CC1(C)O[C@@H]2CC3C4CCC5=CC(=O)C=C[C@]5(C)[C@@]4(F)[C@@H](O)C[C@]3(C)[C@]2(C(=O)CO)O1 (some centres not stated)	inactive
COc1ccc(-c2coc3cc(O)cc(O)c3c2=O)cc1	active
O=C1c2c(O)ccc(O)c2C(=O)c2c(NCCNCCO)ccc(NCCNCCO)c21	inactive
CC(=O)[C@H]1CCC2C3CC=C4C[C@@H](O)CC[C@]4(C)C3CC[C@@]21C (some centres not stated)	active
COc1cc([C@@H]2c3cc4c(cc3C(O[C@@H]3O[C@@H]5CO[C@@H](c6cccs6)OC5[C@H](O)[C@H]3O)C3COC(=O)[C@@H]32)OCO4)cc(OC)c1O (some centres not stated)	inactive
CSc1ccc(C(=O)O)s1	inactive
Cc1coc2ccccc2c1=O	inactive
O=C(N/N=C\c1ccccc1Cl)N/N=C\c1ccccc1Cl	inactive
O=c1c(-c2cc(O)c(O)c(O)c2)coc2cc(O)c(O)c(O)c12	inactive
COC(=O)C[C@H]1C(C)(C)C(=O)[C@@H]2CC3=C4CC(OC)O[C@@H](c5ccoc5)[C@]4(C)CCC3[C@@]1(C)C2=O (some centres not stated)	inactive
COC(=O)C1=C(Nc2ccc(Cl)cc2)CSC1	active
C=CCCCCCCCCCCCC(O)CC(O)CO (configuration not stated)	inactive
CC(=O)CC(c1ccccc1)c1c(O)c2ccccc2oc1=O (configuration not stated)	inactive
O=c1oc2ccccc2c(O)c1Cc1c(O)c2ccccc2oc1=O	inactive
NS(=O)(=O)c1cc2c(cc1C(F)(F)F)NCNS2(=O)=O	inactive
CN(C)CC/C=C1/c2ccccc2COc2ccccc21	inactive
CNCCC=C1c2ccccc2CCc2ccccc21	inactive
CCOC(=O)CSc1nnc(-c2cc(C(C)(C)C)nn2Cc2cccc(C)c2)n1C1CCCCC1	inactive
Cc1cc(=O)c2c(o1)-c1c(cc(O)c(O)c1C(=O)O)OC2	inactive

====

Test: chemical genetic growth profiling, strain panel (AID 1159580);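 also: tested at 20 µM; growth read once vehicle control cultures reached saturation at 30 °C; 1 = growth at the plate median or of vehicle wells; lower values mean less growth of the strain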
Conditions: S. cerevisiae deletion strains, growth OD, locus YAL026C, strain drs2
Among all 5,500 compounds or so, about 2,000 (36%) were called active. Another 18% or so got no clear call; they are omitted. Cut-off read from the data, not from the text of the source: active = normalized growth mostly below about 0.91 (no sharp cut-off); inconclusive = no clear call, values can overlap the other calls; inactive = mostly above about 0.92. The list shows a part of the results.
Classes used: active, inactive

                                    compound  label_class
 0                        CCCCCCc1ccc(O)cc1O       active
 1  CC(=O)OCC(=O)[C@H]1CCC2C3CC=C4C[C@@H](O)CC[C@]4(C)C3CC[C@@]21C (stereo partly specified)     inactive
 2  CCC(/C=C/[C@@H](C)[C@H]1CCC2C3CC=C4C[C@@H](O)CC[C@]4(C)C3CC[C@@]21C)C(C)C (stereo partly specified)     inactive
 3     CCCCC1C(=O)N(c2ccccc2)N(c2ccccc2)C1=O     inactive
 4                         NCCc1ccc(O)c(O)c1     inactive
 5         O=c1cc(-c2cccc(O)c2)oc2ccc(O)cc12     inactive
 6  CCC(CCC(C)[C@H]1CCC2C3CC=C4C[C@@H](O)CC[C@]4(C)C3CC[C@@]21C)C(C)C (stereo partly specified)     inactive
 7  CC(=O)OCC(=O)[C@@]1(O)CCC2C3CC[C@@H]4C[C@H](O)CC[C@]4(C)C3C(=O)C[C@@]21C (stereo partly specified)     inactive
 8         O=c1cc(-c2ccc(O)c(O)c2)oc2ccccc12     inactive
 9                            NCCc1ccc(O)cc1     inactive
10       COc1cccc(-c2cc(=O)c3ccc(OC)cc3o2)c1     inactive

====

Test: chemical genetic growth profiling, strain panel (AID 1159580);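 also: tested at 20 µM; growth read once vehicle control cultures reached saturation at 30 °C; 1 = growth at the plate median or of vehicle wells; lower values mean less growth of the strain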
Details: S. cerevisiae deletion strains, growth OD, locus YOR316C, strain cot1
Hit rate of the full screen: of about 5,500 compounds, about 2,000 (36%) were called active. Roughly 18% stayed inconclusive and do not appear here. Rule as the data show it: active = normalized growth mostly below about 0.91 (no sharp cut-off); inconclusive = no clear call, values can overlap the other calls; inactive = mostly above about 0.92. The list shows a part of the results.
Possible outcomes: true for active, false for inactive

Compound	Label Class
COc1cc([C@@H]2c3cc4c(cc3[C@H](O)[C@H]3COC(=O)[C@@H]23)OCO4)cc(OC)c1OC	false
CC(=O)Nc1cccc(O)c1	false
NCC(=O)CCC(=O)O	false
CC(=O)Nc1ccc(OC(=O)c2ccccc2O)cc1	false
N[C@@H]1CONC1=O	false
CC(=O)O[C@H]1C[C@@H](O)C(C)(C)C2C[C@@H](OC(C)=O)[C@]3(C)C(CC[C@@]4(C)[C@H](c5ccoc5)OC(=O)C5OC543)[C@]21C (stereo partly specified)	false
O=c1c(-c2ccccc2)coc2cc(O)cc(O)c12	false
CN(N=O)C(=O)N[C@@H]1[C@@H](O)[C@H](O)[C@@H](CO)O[C@@H]1O	false
CC1(C)O[C@@H]2CC3C4C[C@H](F)C5=CC(=O)C=C[C@]5(C)[C@@]4(F)[C@@H](O)C[C@]3(C)[C@]2(C(=O)CO)O1 (stereo partly specified)	false
C#CCOS(=O)OC1CCCCC1Oc1ccc(C(C)(C)C)cc1 (stereo unspecified)	false
COCCOC(=O)C1=C(C)NC(C)=C(C(=O)OC(C)C)C1c1cccc([N+](=O)[O-])c1 (stereo unspecified)	false
CC1NC(=O)NC1=O (stereo unspecified)	false
Clc1ccc(Cl)cc1	false
CC(=O)O[C@@H]1CC2C(C)(C)C(=O)CC[C@]2(C)C2CC[C@@]3(C)[C@H](c4ccoc4)OC(=O)C4OC43[C@@]21C (stereo partly specified)	false
CC(=O)O[C@@H]1CC2C(C)(C)[C@H](O)C[C@H](O)[C@]2(C)C2CC[C@@]3(C)[C@H](c4ccoc4)OC(=O)[C@H]4O[C@]43[C@@]21C (stereo partly specified)	false
CC(=O)[C@H]1CCC2C3CC=C4C[C@@H](O)CC[C@]4(C)C3CC[C@@]21C (stereo partly specified)	false
Nc1ccc(C(=O)O)c(O)c1	false
COc1ccc(-c2cc(=O)c3c(OC(C)=O)cc(OC(C)=O)cc3o2)cc1	false
CC(C)[C@]12O[C@H]1[C@@H]1O[C@@]13[C@@]1(C)CCC4=C(COC4=O)[C@@H]1C[C@@H]1O[C@@]13C2=O	false
O=c1c(-c2ccc(O)cc2)coc2cc(O)cc(O)c12	false
COc1cccc(-c2cc(=O)c3ccc(OC)cc3o2)c1	true
CN1CCc2c(c3ccccc3n2Cc2ccccc2)C1	false
Cn1c(=O)c2[nH]c(C3CCCC3)nc2n(C)c1=O	false
COc1c(O)cccc1O	false
CCC/C=C/C=C/[C@@H]1C[C@@H](O)[C@@H](O)C(=O)[C@H]1C=O	false
CCCN1C[C@H](CSC)C[C@@H]2c3cccc4[nH]cc(c34)C[C@H]21	false
CC(=O)Nc1ccc(O)cc1	false
CC1(C)O[C@@H]2CC3C4C[C@H](F)C5=CC(=O)C=CC5(C)C4C(O)CC3(C)[C@]2(C(=O)CO)O1 (stereo partly specified)	false
O=c1c2ccccc2oc2ccc(O)cc12	false
O=c1c2ccccc2[se]n1-c1ccccc1	true
Nc1ccc(C(=O)Oc2ccccc2)c(O)c1	true
CN1CCOC(c2ccccc2)c2ccccc2C1 (stereo unspecified)	false
Cc1coc2ccccc2c1=O	false
CNCCC=C1c2ccccc2CCc2ccccc21	false
COc1ccc2c(=O)cc(-c3ccccc3OC)oc2c1	false
CC(=O)O[C@@H]1CC2C(C)(C)CCC(=O)[C@]2(C)C2CC[C@@]3(C)[C@H](c4ccoc4)OC(=O)C4OC43[C@@]21C (stereo partly specified)	false
CCCCCCCCCCCCCCCC[n+]1ccccc1	true
C=CCCCCCCCCCCCC(O)CC(O)CO (stereo unspecified)	false
CC(=O)O[C@H]1C[C@@]2(C)[C@H](c3ccoc3)OC(=O)[C@H]3O[C@]32[C@@]2(C)C1[C@]1(C)C(C[C@H]2OC(C)=O)C(C)(C)[C@H](OC(C)=O)C[C@@H]1OC(C)=O (stereo partly specified)	false
COC(=O)C1=C(C)NC(C)=C(C(=O)OC)C1c1ccccc1[N+](=O)[O-]	false
CN(C)CC/C=C1/c2ccccc2COc2ccccc21	false
